test system: S. pneumoniae; test: Inhibition of adherence of pneumococci to human pharyngeal epithelium cells (bacteria preincubated with free receptor); type: cell-based; settings: Streptococcus pneumoniae, read-out: Adherence % of control Average
Exercise: state measured activity at 1000 µg/mL for each of the compounds provided.
Give bare numbers, in %.

Prompt line: Provide measured activity at 1000 µg/mL value, entry: CC(=O)N[C@H]1C(O)O[C@H](CO)[C@@H](O[C@@H]2O[C@H](CO)[C@H](O)[C@H](O)[C@H]2O)[C@@H]1O (stereo partly shown) [Substance 10, N-acetyllactose amine, reference compound]
Response line: 95

Prompt line: Provide measured activity at 1000 µg/mL value, entry: `CO[C@H]1O[C@H](CO)[C@@H](O[C@@H]2O[C@H](CO)[C@H](O)[C@H](O)[C@H]2O)[C@H](O)[C@H]1NC(C)=O`
Response line: 96

Prompt line: Provide measured activity at 1000 µg/mL value, entry: `CO[C@@H]1O[C@H](CO)[C@@H](O[C@@H]2O[C@H](CO)[C@H](O)[C@H](O[C@@H]3O[C@H](CO)[C@@H](O[C@@H]4O[C@H](CO)[C@H](O)[C@H](O)[C@H]4O)[C@H](O)[C@H]3NC(C)=O)[C@H]2O)[C@H](O)[C@H]1O`
Response line: 11

Then there is this compound:
Prompt line: Provide measured activity at 1000 µg/mL value, entry: `CO[C@@H]1O[C@H](CO)[C@H](O)[C@H](O[C@@H]2O[C@H](CO)[C@@H](O)[C@H](O)[C@H]2NC(C)=O)[C@H]1O`
Response line: 105

----------
tested on: S. pneumoniae; assay: Inhibition of adherence of pneumococci to human pharyngeal epithelium cells (bacteria preincubated with free receptor); type: cell-based; settings: Streptococcus pneumoniae, read-out: Adherence % of control Average
Metric name: activity at 10000 µg/mL (%)
Numbers only, in %.

// solved cases for activity at 10000 µg/mL follow
Prompt line: Provide measured activity at 10000 µg/mL value, entry: `CO[C@@H]1O[C@H](CO)[C@@H](O[C@@H]2O[C@H](CO)[C@H](O)[C@H](O)[C@H]2O)[C@H](O)[C@H]1NC(C)=O`
Response line: 29

Prompt line: Provide measured activity at 10000 µg/mL value, entry: `CO[C@@H]1O[C@H](CO)[C@@H](O[C@@H]2O[C@H](CO)[C@H](O)[C@H](O[C@@H]3O[C@H](CO)[C@@H](O[C@@H]4O[C@H](CO)[C@H](O)[C@H](O)[C@H]4O)[C@H](O)[C@H]3NC(C)=O)[C@H]2O)[C@H](O)[C@H]1O`
Response line: 4

Then there is this compound:
Prompt line: Provide measured activity at 10000 µg/mL value, entry: CC(=O)N[C@H]1[C@H](O[C@H]2[C@@H](O)[C@@H](CO)O[C@@H](O[C@H]3[C@H](O)[C@@H](O)C(O)O[C@@H]3CO)[C@@H]2O)O[C@H](CO)[C@@H](O[C@@H]2O[C@H](CO)[C@H](O)[C@H](O)[C@H]2O)[C@@H]1O (stereo partly drawn)
Response line: 1

----------
Test system: S. pneumoniae
Assay: Inhibition of adherence of pneumococci to human pharyngeal epithelium cells (bacteria preincubated with free receptor)
Format: cell-based
Conditions: Streptococcus pneumoniae, read-out: Adherence % of control Average
Description: Two strains of S. Pneumoniae, EF3114 and EF 10276 (both of the capsular type 6A isolated from the nasopharynx of patients having inflammation in the middle ear) were maintained in a lyophilized state. […] For inhibition of adhesion the bacterium concentration giving an average adhesion value of 20-300 bacteria per cell was determined. […]
Metric name: activity at 1000 µg/mL
Report the figure along with its unit, number first.

// solved cases for activity at 1000 µg/mL follow
Prompt line: Please tell me the measured activity at 1000 µg/mL for CC(=O)N[C@H]1[C@H](O[C@H]2[C@@H](O)[C@@H](CO)O[C@@H](O[C@H]3[C@H](O)[C@@H](O)C(O)O[C@@H]3CO)[C@@H]2O)O[C@H](CO)[C@@H](O[C@@H]2O[C@H](CO)[C@H](O)[C@H](O)[C@H]2O)[C@@H]1O (some centres unmarked) ; system: S. pneumoniae.
Response line: 28%

Prompt line: Please tell me the measured activity at 1000 µg/mL for `CCO[C@@H]1O[C@H](CO)[C@@H](O[C@@H]2O[C@H](CO)[C@H](O)[C@H](O)[C@H]2O)[C@H](O)[C@H]1O` ; system: S. pneumoniae.
Response line: 85%

Prompt line: Please tell me the measured activity at 1000 µg/mL for `CO[C@@H]1O[C@H](CO)[C@@H](O[C@@H]2O[C@H](CO)[C@H](O)[C@H](O)[C@H]2O)[C@H](O)[C@H]1NC(C)=O` ; system: S. pneumoniae.
Response line: 96%

Required: activity at 1000 µg/mL, one value per compound below.
1. CO[C@@H]1O[C@H](CO)[C@H](O)[C@H](O[C@@H]2O[C@H](CO)[C@@H](O[C@@H]3O[C@H](CO)[C@H](O)[C@H](O)[C@H]3O)[C@H](O)[C@H]2NC(C)=O)[C@H]1O
2. CCO[C@@H]1O[C@H](CO)[C@@H](O[C@@H]2O[C@H](CO)[C@H](O)[C@H](O)[C@H]2O)[C@H](O)[C@H]1NC(C)=O

Response line:
["45%", "67%"]
